# ASSAY_DETAILS: Solubility in pH 7.4 Hank's Balanced Salt Solution, LC/MS/MS
# Format: physicochemical
# SETUP_CONDITIONS: Hank's Balanced Salt Solution buffer, pH 7.4, aqueous buffer, thermodynamic from solid, pH 7.4 buffer, shaken 2 hours, stood overnight at room temperature; replicate 1; read-out: Solubility Rep 1
MEASUREMENT_KIND: solubility (µM)
Use µM as the unit, but write only the number.

Give the measured solubility for Oc1ccc(/C=C/c2cc(O)cc(O)c2)cc1 [Powdered Resveratrol, trans-3,5,4′-trihydroxystilbene]
0.4

---

# ASSAY_DETAILS: Solubility in pH 7.4 Hank's Balanced Salt Solution, LC/MS/MS
# Format: physicochemical
# SETUP_CONDITIONS: Hank's Balanced Salt Solution buffer, pH 7.4, aqueous buffer, thermodynamic from solid, pH 7.4 buffer, shaken 2 hours, stood overnight at room temperature; average of 2 replicates; read-out: Solubility AVG
MEASUREMENT_KIND: solubility (µM)
Use µM as the unit, but write only the number.

Give the measured solubility for Oc1ccc(/C=C/c2cc(O)cc(O)c2)cc1 [Powdered Resveratrol, trans-3,5,4′-trihydroxystilbene]
0.5
